tested on: cell-surface Mac-1 adhesion to immobilized fibrinogen (HL-60 cells); test: Mac-1/Fibrinogen cell-based screening assay; design: species or system human; details: Homo sapiens, HL-60, HL-60 cells; read-out: Mac-1/Fgn Cell based Assay IC50
pIC50: −log10 of the molar value.
A collection of compounds and their measured pIC50
quantity-measured: pIC50

| molecule-smiles | measured-value |
| --- | --- |
| O=C(NCc1cccc(O)c1)c1ccc(C(=O)N[C@@H](CNC(=O)C2CCCCC2)C(=O)O)c(Cl)c1 | 7.09 |
| O=C(NCc1cccc(O)c1)c1cc(Cl)c(C(=O)N[C@@H](CNC(=O)c2ccsc2)C(=O)O)c(Cl)c1 | 8.77 |
| Cc1cccc(C(=O)NC[C@H](NC(=O)c2ccc(C(=O)NCc3cccc(O)c3)cc2Cl)C(=O)O)c1 | 7.77 |
